As an illustration, consider measured IC50 for molecules on Type-1 angiotensin II receptor (Homo sapiens).
Sequence (P30556 whole entry): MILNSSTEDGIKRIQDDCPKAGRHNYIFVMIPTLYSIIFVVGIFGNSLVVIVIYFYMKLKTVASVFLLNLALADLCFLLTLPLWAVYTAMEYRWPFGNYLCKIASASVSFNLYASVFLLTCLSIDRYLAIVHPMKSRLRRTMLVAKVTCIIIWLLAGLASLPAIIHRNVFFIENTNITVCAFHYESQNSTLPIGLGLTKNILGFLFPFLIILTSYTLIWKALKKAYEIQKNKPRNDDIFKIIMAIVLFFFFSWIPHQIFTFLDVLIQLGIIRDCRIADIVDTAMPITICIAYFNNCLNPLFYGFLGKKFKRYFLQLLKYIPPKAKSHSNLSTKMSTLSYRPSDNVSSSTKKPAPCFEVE
Give bare numbers, in nM.

Worked cases, answers included:
- Molecule: "CCCc1nc2c(C)cc(C(=O)NCCc3ccc(OC)c(OC)c3)cc2n1Cc1ccc(-c2ccccc2-c2nnn[nH]2)cc1"
  Measurement: 3.7
- Molecule: "CCCc1nc2c(C)cc(C(=O)NCCc3cc(OC)ccc3OC)cc2n1Cc1ccc(-c2ccccc2-c2nnn[nH]2)cc1"
  Measurement: 78
- Molecule: "CCCc1nc2c(C)cc(C(=O)NCCc3ccc(OC)cc3)cc2n1Cc1ccc(-c2ccccc2-c2nnn[nH]2)cc1"
  Measurement: 22.5
- Molecule: "CCCc1nc2c(C)cc(C(=O)NCc3ccc(OC)cc3)cc2n1Cc1ccc(-c2ccccc2-c2nnn[nH]2)cc1"
  Measurement: 119
- Molecule: "CCCc1nc2c(C)cc(C(=O)NCc3cccc(OC)c3)cc2n1Cc1ccc(-c2ccccc2-c2nnn[nH]2)cc1"
  Measurement: 78.3

Go through the list and state IC50 for each entry.
1. CCCc1nc2c(C)cc(C(=O)NCC(C)c3ccccc3)cc2n1Cc1ccc(-c2ccccc2-c2nnn[nH]2)cc1 (centres undefined)
2. CCCc1nc2c(C)cc(C(=O)NCCc3ccc(F)cc3)cc2n1Cc1ccc(-c2ccccc2-c2nnn[nH]2)cc1
3. CCCc1nc2c(C)cc(C(=O)NCCc3ccccc3)cc2n1Cc1ccc(-c2ccccc2-c2nnn[nH]2)cc1
4. CCCc1nc2c(C)cc(C(=O)NCc3ccccc3)cc2n1Cc1ccc(-c2ccccc2-c2nnn[nH]2)cc1

## Output
0.9
209
1.3
410
